Where do these numbers come from? They come from patent US8865623B2.

System: Echinochloa crus-galli (ECHCG)
method: Pre-emergence herbicidal activity, glasshouse pot test
Format: in vivo
measurement.conditions: Echinochloa crus-galli, 312 h; Rate 250 g/ha; pre-emergence spray; evaluated after 13 days; read-out: Pre-emergence activity ECHCG (100=total damage to plant; 0=no damage to plant)
assay.readout: pest or weed control at 250 g/ha (%)
Numbers only, in %.

Known results for compounds:
In [3]: df
Out[3]:
                                   compound                     system_name                     assay_readout  test_value
0  CCc1ccc(Oc2ccc(C#N)c(Cl)c2)cc1C1=C(O)[C@@H]2CC[C@](C)(C1=O)C2(C)C [Example A-313]  Echinochloa crus-galli (ECHCG)  pest or weed control at 250 g/ha         100
1  CCc1ccc(Oc2ccc(Br)cc2Cl)cc1C1=C(O)C(C)(C)OC(C)(C)C1=O [Example A-9]  Echinochloa crus-galli (ECHCG)  pest or weed control at 250 g/ha         100
2  CCc1ccc(Oc2cc(Cl)ncn2)cc1C1=C(O)C(C)(C)OC(C)(C)C1=O [Example A-98]  Echinochloa crus-galli (ECHCG)  pest or weed control at 250 g/ha          80
3  CCc1ccc(Oc2ccc(OC(F)(F)F)cc2)cc1C1=C(O)[C@H]2CC[C@H](C2)C1=O [Example A-248]  Echinochloa crus-galli (ECHCG)  pest or weed control at 250 g/ha         100
4  CCc1ccc(Oc2ccc(Cl)cc2Cl)cc1C1=C(O)C(C)(C)OC(C)(C)C1=O [Example A-19]  Echinochloa crus-galli (ECHCG)  pest or weed control at 250 g/ha         100

Please give pest or weed control at 250 g/ha for each item listed below.
1. CCc1ccc(Oc2nc3c(Cl)cc(Cl)cc3s2)cc1C1=C(O)[C@@H]2CC[C@](C)(C1=O)C2(C)C [Example A-328]
2. CCc1ccc(Oc2ccc([N+](=O)[O-])cc2Cl)cc1C1=C(O)C(C)(C)OC(C)(C)C1=O [Example A-201]
3. CCc1ccc(Oc2c(Cl)cc(C(F)(F)F)cc2Cl)cc1C1=C(O)C(C)(C)OC(C)(C)C1=O [Example A-204]

1. 100
2. 60
3. 20

* * *

Consider the following compounds; for each one, report its pest or weed control at 250 g/ha.
Test system: Alopecurus myosuroides (ALOMY)
method: Post-emergence herbicidal activity, glasshouse pot test
Format: in vivo
measurement.conditions: Alopecurus myosuroides, 312 h, rate 250 g/ha, evaluated after 13 days, glasshouse, read-out: Post-emergence activity ALOMY (100=total damage to plant; 0=no damage to plant)
Numbers only, in %.

Please go through the list and note pest or weed control at 250 g/ha for each compound.
1. CCc1ccc(Oc2ccc(Cl)cc2)cc1C1=C(O)[C@@H]2CC[C@](C)(C1=O)C2(C)C (single isomer, unassigned)
2. Cc1ccc(Oc2ccc(Cl)cc2)cc1C1=C(O)C(C)(C)OC(C)(C)C1=O
3. CCc1ccc(Oc2cc(F)cc(F)n2)cc1C1=C(O)C(C)(C)OC(C)(C)C1=O
4. CCc1ccc(Oc2ccc(C(F)(F)F)c(Cl)c2)cc1C1=C(O)[C@@H]2CC[C@](C)(C1=O)C2(C)C
5. CCc1ccc(Oc2nc3ccc([N+](=O)[O-])cc3s2)cc1C1=C(O)CC(C)(C)CC1=O
6. CCc1ccc(Oc2ccc(C#N)cc2C(F)(F)F)cc1C1=C(O)C(C)(C)OC(C)(C)C1=O

1: 60; 2: 20; 3: 30; 4: 40; 5: 90; 6: 90

* * *

Test system: Echinochloa crus-galli (ECHCG)
method: Pre-emergence herbicidal activity, glasshouse pot test
Assay type: in vivo
measurement.conditions: Echinochloa crus-galli, 312 h; Rate 250 g/ha; pre-emergence spray; evaluated after 13 days; read-out: Pre-emergence activity ECHCG (100=total damage to plant; 0=no damage to plant)
assay.readout: pest or weed control at 250 g/ha (%)
Numbers only, in %.

// known answers, use as guide
>>> print(df.to_string())
                                   molecule  units_symbol  test_value
0  CCc1ccc(Oc2ccc([N+](=O)[O-])c(C(F)(F)F)c2)cc1C1=C(O)C(C)(C)OC(C)(C)C1=O [Example A-197]             %          30
1  CCc1ccc(Oc2ccc(Cl)cc2Cl)cc1C1=C(O)CCCC1=O [Example A-40]             %          80
2  CCc1ccc(Oc2ccc([N+](=O)[O-])cc2C#N)cc1C1=C(O)C(C)(C)OC(C)(C)C1=O [Example A-202]             %          60
3  CCc1ccc(Oc2ccc(Cl)c(F)c2)cc1C1=C(O)[C@@H]2CC[C@](C)(C1=O)C2(C)C (single isomer, unassigned) [Example A-93]             %         100
4  CCc1ccc(Oc2nc3ccc(Cl)cc3o2)cc1C1=C(O)C(C)(C)OC(C)(C)C1=O [Example A-188]             %          90
5  CCc1ccc(Oc2cnc3cc(Cl)ccc3n2)cc1C1=C(O)CC2(CCOCC2)CC1=O [Example A-233]             %         100

Would you be so kind as to report pest or weed control at 250 g/ha for each listed record?
1. CCc1ccc(Oc2ccc(C#N)cc2F)cc1C1=C(O)CC2(CCOCC2)CC1=O [Example A-270]
2. CCc1ccc(Oc2ccc(Cl)cc2Cl)cc1C1=C(O)CC2(CCOCC2)CC1=O [Example A-190]
3. CCc1ccc(Oc2nccnc2Cl)cc1C1=C(O)C(C)(C)OC(C)(C)C1=O [Example A-103]
4. CCc1ccc(Oc2ccc(C(F)(F)F)c(Cl)c2)cc1C1=C(O)CC(C)(C)CC1=O [Example A-283]

1. 100
2. 80
3. 30
4. 90

* * *

System: Echinochloa crus-galli (ECHCG)
method: Pre-emergence herbicidal activity, glasshouse pot test
Format: in vivo
measurement.conditions: Echinochloa crus-galli, 312 h; Rate 250 g/ha; pre-emergence spray; evaluated after 13 days; read-out: Pre-emergence activity ECHCG (100=total damage to plant; 0=no damage to plant)
# note: boundary value 90% maps to criterion not met; pest or weed control at 250 g/ha below it maps to criterion met

Some solved cases for reference:
In [3]: df
Out[3]:
                                   compound         class_name
0  CCc1ccc(Oc2cccc(Br)c2)cc1C1=C(O)[C@H]2CC[C@H](C2)C1=O [Example A-245]      criterion met
1  CCc1ccc(Oc2ccc(F)cc2Cl)cc1C1=C(O)CC(C)(C)CC1=O [Example A-70]  criterion not met
2  CCc1ccc(Oc2ccc([N+](=O)[O-])c(C#N)c2)cc1C1=C(O)C(C)(C)OC(C)(C)C1=O [Example A-196]      criterion met
3  CCc1ccc(Oc2ccc(Br)cc2)cc1C1=C(O)[C@H]2CC[C@H](C2)C1=O (single isomer, unassigned) [Example A-91]  criterion not met
4  CCc1ccc(Oc2ccc(C#N)cc2C(F)(F)F)cc1C1=C(O)CC(C)(C)CC1=O [Example A-290]      criterion met

Would you kindly verify if pest or weed control at 250 g/ha of CCc1ccc(Oc2nc3cc(Cl)ccc3s2)cc1C1=C(O)[C@@H]2CC[C@](C)(C1=O)C2(C)C [Example A-322] is strictly less than 90%? criterion not met

* * *

Tested on: Echinochloa crus-galli (ECHCG)
method: Pre-emergence herbicidal activity, glasshouse pot test
Format: in vivo
measurement.conditions: Echinochloa crus-galli, 312 h; Rate 250 g/ha; pre-emergence spray; evaluated after 13 days; read-out: Pre-emergence activity ECHCG (100=total damage to plant; 0=no damage to plant)
Would you kindly list pest or weed control at 250 g/ha for each of these molecules?
One number for each entry, in %.

Please look at the items below and tell me pest or weed control at 250 g/ha for each one, in order.
1. CCc1ccc(Oc2cc(C)ccn2)cc1C1=C(O)C(C)(C)OC(C)(C)C1=O
2. CCc1ccc(Oc2ccc([N+](=O)[O-])cn2)cc1C1=C(O)C(C)(C)OC(C)(C)C1=O

[20, 60]

* * *

Test system: Alopecurus myosuroides (ALOMY)
method: Post-emergence herbicidal activity, glasshouse pot test
Assay type: in vivo
measurement.conditions: Alopecurus myosuroides, 312 h, rate 250 g/ha, evaluated after 13 days, glasshouse, read-out: Post-emergence activity ALOMY (100=total damage to plant; 0=no damage to plant)
assay.readout: pest or weed control at 250 g/ha
Form entry: enter the amount, then its unit.

Worked cases, answers included:
>>> df
                                   molecule                     assay_readout  test_value
0  CCc1ccc(Oc2nc(F)c(F)cc2F)cc1C1=C(O)C(C)(C)OC(C)(C)C1=O [Example A-167]  pest or weed control at 250 g/ha         60%
1  CCc1ccc(Oc2ccc(Cl)cc2F)cc1C1=C(O)C(C)(C)OC(C)(C)C1=O [Example A-15]  pest or weed control at 250 g/ha         90%
2  CCc1ccc(Oc2ccc3ccccc3n2)cc1C1=C(O)[C@@H]2CC[C@](C)(C1=O)C2(C)C [Example A-321]  pest or weed control at 250 g/ha         90%
3  CCc1ccc(Oc2ccc(OC(F)(F)F)cc2)cc1C1=C(O)[C@H]2CC[C@H](C2)C1=O [Example A-248]  pest or weed control at 250 g/ha        100%
4  CCc1ccc(Oc2ncc(C)cn2)cc1C1=C(O)C(C)(C)OC(C)(C)C1=O [Example A-123]  pest or weed control at 250 g/ha         20%

For every item in the list below, what is its measured pest or weed control at 250 g/ha?
1. CCc1ccc(Oc2ncc(I)cc2Cl)cc1C1=C(O)C(C)(C)OC(C)(C)C1=O [Example A-157]
2. CCc1ccc(Oc2ccc3cc(Cl)ccc3n2)cc1C1=C(O)CC(C)(C)CC1=O [Example A-261]
3. CCc1ccc(Oc2ccc([N+](=O)[O-])cc2)cc1C1=C(O)C(C)(C)OC(C)(C)C1=O [Example A-195]
4. CCc1ccc(Oc2ccc(F)cc2)cc1C1=C(O)CC(C)(C)CC1=O [Example A-28]
5. CCc1ccc(Oc2ccc(F)cc2F)cc1C1=C(O)C(C)(C)OC(C)(C)C1=O [Example A-14]
6. CCc1ccc(Oc2ccc3cc(Cl)ccc3n2)cc1C1=C(O)C(C)(C)OC(C)(C)C1=O [Example A-159]
7. CCc1ccc(Oc2ccc3cc(Cl)ccc3n2)cc1C1=C(O)[C@@H]2CC[C@](C)(C1=O)C2(C)C [Example A-235]
8. CCc1ccc(Oc2ccc(C#N)c(F)c2)cc1C1=C(O)C(C)(C)OC(C)(C)C1=O [Example A-116]

1. 90%
2. 90%
3. 60%
4. 30%
5. 0%
6. 80%
7. 90%
8. 80%

Hello, I would appreciate it if you could give pest or weed control at 250 g/ha for each entry below.
1. CCc1ccc(Oc2nc(F)c(F)c(C)c2F)cc1C1=C(O)C(C)(C)OC(C)(C)C1=O [Example A-59]
2. CCc1ccc(Oc2ccc(C(F)(F)F)cc2Cl)cc1C1=C(O)[C@H]2CC[C@H](C2)C1=O [Example A-331]
3. CCc1ccc(Oc2ccc(F)c(Cl)c2)cc1C1=C(O)[C@H]2CC[C@H](C2)C1=O [Example A-246]

["80%", "80%", "50%"]
